Below: a set of entries, each annotated with reported Selectivity index II/IX.
# testedOn: hCA IX (Homo sapiens, UniProt Q16790)
# assayText: biochemical
# Type: biochemical
# measurementConditions: ratio KI hCA II / KI hCA IX

>  <smilesInput>
NS(=O)(=O)c1ccc(Nc2nc3nccc(-c4cccc(Br)c4)n3n2)cc1

>  <Selectivity index II/IX>
3.5

$$$$

Give its Selectivity index II/IX value. Item: `Cc1ccccc1-c1ccnc2nc(Nc3ccc(S(N)(=O)=O)cc3)nn12`
9.1

Now consider `NS(=O)(=O)c1ccc(Nc2nc3nccc(-c4c(F)cccc4F)n3n2)cc1` and answer again.
0.8

Can you handle `CCOc1ccc(-c2ccnc3nc(Nc4ccc(S(N)(=O)=O)cc4)nn23)cc1` next?
1.6

====

Catalogue of Ki readings, one per entry.
# testedOn: hCA IX (Homo sapiens)

Can you look up the measured Ki of NS(=O)(=O)c1ccc(Nc2nc3nccc(-c4ccncc4)n3n2)cc1 [Compound 1c] for me?
41.6 nM

For NS(=O)(=O)c1ccc(Nc2nc3nccc(-c4cccc(Cl)c4)n3n2)cc1 [Compound 1l] then?
30.4 nM

====

Measurement record for hCA I (Homo sapiens); quantity recorded: log10 Ki.
Kindly note that the scale is log10 and the underlying Ki is in nM.

>  <compound>
NS(=O)(=O)c1ccc(Nc2nc3nccc(-c4cccc(Cl)c4)n3n2)cc1 [Compound 1l]

>  <testedOn>
hCA I (Homo sapiens)
Sequence (P00915 whole entry): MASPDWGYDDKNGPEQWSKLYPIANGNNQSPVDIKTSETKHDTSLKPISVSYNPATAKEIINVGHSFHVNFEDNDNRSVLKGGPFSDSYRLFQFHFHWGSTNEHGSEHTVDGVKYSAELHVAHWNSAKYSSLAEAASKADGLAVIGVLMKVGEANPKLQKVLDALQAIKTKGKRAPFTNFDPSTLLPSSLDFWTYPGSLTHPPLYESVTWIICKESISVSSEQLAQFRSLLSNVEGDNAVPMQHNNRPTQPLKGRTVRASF

>  <measured>
3.82

$$$$
>  <compound>
NS(=O)(=O)c1ccc(Nc2nc3nccc(-c4c(F)cccc4F)n3n2)cc1 [Compound 1i]

>  <testedOn>
hCA I (Homo sapiens)

>  <measured>
2.87

$$$$
>  <compound>
CCOc1ccc(-c2ccnc3nc(Nc4ccc(S(N)(=O)=O)cc4)nn23)cc1 [Compound 1z]

>  <testedOn>
hCA I (Homo sapiens)

>  <measured>
3.35

$$$$
>  <compound>
Cc1ccccc1-c1ccnc2nc(Nc3ccc(S(N)(=O)=O)cc3)nn12 [Compound 1v]

>  <testedOn>
hCA I (Homo sapiens)

>  <measured>
3.43

$$$$
>  <compound>
NS(=O)(=O)c1ccc(Nc2nc3nccc(-c4cccc(F)c4)n3n2)cc1 [Compound 1g]

>  <testedOn>
hCA I (Homo sapiens)

>  <measured>
2.74

$$$$
>  <compound>
NS(=O)(=O)c1ccc(Nc2nc3nccc(-c4ccccc4F)n3n2)cc1 [Compound 1h]

>  <testedOn>
hCA I (Homo sapiens)

>  <measured>
2.83

$$$$
>  <compound>
COc1ccccc1-c1ccnc2nc(Nc3ccc(S(N)(=O)=O)cc3)nn12 [Compound 1y]

>  <testedOn>
hCA I (Homo sapiens)

>  <measured>
3.34

$$$$
>  <compound>
NS(=O)(=O)c1ccc(Nc2nc3nccc(-c4ccccc4Cl)n3n2)cc1 [Compound 1m]

>  <testedOn>
hCA I (Homo sapiens)

>  <measured>
3.96

$$$$
>  <compound>
NS(=O)(=O)c1ccc(Nc2nc3nccc(-c4ccc([N+](=O)[O-])cc4)n3n2)cc1 [Compound 1q]

>  <testedOn>
hCA I (Homo sapiens)

>  <measured>
3.63

$$$$
>  <compound>
NS(=O)(=O)c1ccc(Nc2nc3nccc(-c4ccc(F)cc4)n3n2)cc1 [Compound 1f]

>  <testedOn>
hCA I (Homo sapiens)

>  <measured>
2.88

$$$$

log10 Ki for NS(=O)(=O)c1ccc(Nc2nc3nccc(-c4ccccc4[N+](=O)[O-])n3n2)cc1 [Compound 1s] ?
3.93

Thanks! And NS(=O)(=O)c1ccc(Nc2nc3nccc(-c4cccnc4)n3n2)cc1 [Compound 1d] ?
2.78

Moving on to the next compound: NS(=O)(=O)c1ccc(Nc2nc3nccc(-c4ccncc4)n3n2)cc1 [Compound 1c]
2.86

Entry to check: COc1ccc(-c2ccnc3nc(Nc4ccc(S(N)(=O)=O)cc4)nn23)cc1 [Compound 1w]
3.21

Also need NS(=O)(=O)c1ccc(Nc2nc3nccc(-c4cccc(Br)c4)n3n2)cc1 [Compound 1o] , thanks.
3.96

And then Cc1ccc(-c2ccnc3nc(Nc4ccc(S(N)(=O)=O)cc4)nn23)cc1 [Compound 1t] , what is it?
3.17

Also, NS(=O)(=O)c1ccc(Nc2nc3nccc(-c4cccs4)n3n2)cc1 [Compound 1b] please.
2.70

Try the compound NS(=O)(=O)c1ccc(Nc2nc3nccc(-c4ccc(Br)cc4)n3n2)cc1 [Compound 1n]
3.53

Moving on to the next compound: NS(=O)(=O)c1ccc(Nc2nc3nccc(-c4cccc([N+](=O)[O-])c4)n3n2)cc1 [Compound 1r]
3.54

Do the same for COc1ccc(-c2ccnc3nc(Nc4ccc(S(N)(=O)=O)cc4)nn23)cc1OC [Compound 1ab] please
3.00

And for COc1cccc(-c2ccnc3nc(Nc4ccc(S(N)(=O)=O)cc4)nn23)c1 [Compound 1x] ?
3.03

Same read-out for NS(=O)(=O)c1ccc(Nc2nc3nccc(-c4ccc(Cl)cc4)n3n2)cc1 [Compound 1k] ?
3.35

Item: NS(=O)(=O)c1ccc(Nc2nc3nccc(-c4ccc(I)cc4)n3n2)cc1 [Compound 1p]
3.88

# iterate: Cc1cccc(-c2ccnc3nc(Nc4ccc(S(N)(=O)=O)cc4)nn23)c1 [Compound 1u]
3.15

Same again, this time with NS(=O)(=O)c1ccc(Nc2nc3nccc(-c4ccccc4)n3n2)cc1 [Compound 1a]
2.92

Let us now turn to NS(=O)(=O)c1ccc(Nc2nc3nccc(-c4c(F)ccc(F)c4F)n3n2)cc1 [Compound 1j]
2.70

And COc1cc(OC)cc(-c2ccnc3nc(Nc4ccc(S(N)(=O)=O)cc4)nn23)c1 [Compound 1aa] ?
3.66
